Data credit: patent US20080075726A1

Below: a set of entries, each annotated with reported IC50.
# target-or-test-system: T1, recombinant human IL-6 (human, UniProt P05231 30-212, limits assumed)
# T1 construct: also called rhIL6; human recombinant IL-6
# protocol-summary: competition ELISA, rhIL-6 in solution against captured IL-6
The response must be a number in nM with no trailing unit.

Task: For the binder shown here, mAb 1123 (antibody, V domains shown) VH: QVTLKESGPTLVKPTQTLTLTCSFSGFSLSTSGVGVGWVRQPPGKALEWLAFIFWDDDKYYSPSLESRLTITKDTSKNQVVLTMTNMDPVDTATYYCARFYDDYLYYALDYWGQGTLVT VL: DIQMTQSPSSLSAFVGDGVTMTCWASQSINDYLNWYHQRPGEAPELLVFAASNLQIGVPSRFRGSGSETYFTLTINSLQPEDSGTYFCQNGHSFPLTFGGGTKLEI , give the reported IC50.
Result: 0.11

Task: And mAb 182 (antibody, V domains shown) VH: QVTLKESGPALVKPTQTLTLTCTFSGFSLTTSGMCVSWIRQPPGKALEWLALIYWDDDKRYNPSLRSRLTITKDTSKNQVVLTMTNMDPVDTATYYCARSYDDYLYYALDYWGQGTLVT VL: DIQMTQSPSSLSASVGDRVTITCRASQSISTYLNWYQQKLGKAPKLLIYAASSLQSGVPSRFSGSGSGTDFTLTISSLQPEDLATYYCQQSYRPLTFGGGTKLEIK ?
Result: 6.3

Task: And mAb 123 (antibody, V domains shown) VH: QVTLKESGPALVKPTQTLTLTCTFSGFSLTTSGMCVSWIRQPPGKALEWLALIYWDDDKRYNPSLRSRLTITKDTSKNQVVLTMTNMDPVDTATYYCARSHDDYLYYALDYWGQGTLVT VL: DIVMTQSPATLSVTPGDRVSLSCRASQSISDYLHWYQQKSHESPRLLIKSVSQSISGIPSRFSGSGSGSDFTLSINSVEPEDVGVYYCQNGHSFPLTFGAGTKLELK ?
Result: 1.1
